The measured values listed here are drawn from patent US20200231614A1.

Would you kindly list Biodistribution: PC-3 flu for each of these compounds?
Tested on: PSMA + PC-3 PiP and PSMA − PC-3 flu tumor xenografts
PARTICULARS: PSMA− tumor xenograft, 21 H post-injection
One number for each entry, in % ID/g.

Below are worked cases with known answers.
compound="N=C(N)NCc1ccc(C(=O)NCCCC[C@H](NC(=O)N[C@@H](CCC(=O)O)C(=O)O)C(=O)O)cc1[131I] [[^131I] labeled 7 (PSMA-620)]" assayed_target="PSMA + PC-3 PiP and PSMA − PC-3 flu tumor xenografts" assay_result=0.20
compound="N=C(N)NCc1ccc(C(=O)NCCCCC(NC(=O)CCCCCCC(=O)NCCCC[C@H](NC(=O)N[C@@H](CCC(=O)O)C(=O)O)C(=O)O)C(=O)O)cc1[131I] (some centres unmarked) [[^131I] labeled PSMA-904]" assayed_target="PSMA + PC-3 PiP and PSMA − PC-3 flu tumor xenografts" assay_result=0.02
compound="O=C(O)CC[C@H](NC(=O)N[C@@H](CCC(=O)NCCc1ccc([131I])cc1)C(=O)O)C(=O)O [[^131I]HS-549]" assayed_target="PSMA + PC-3 PiP and PSMA − PC-3 flu tumor xenografts" assay_result=0.44

Batch request: Biodistribution: PC-3 flu for each of the following compounds.
1. N=C(N)NCc1ccc(C(=O)NCCCCC(NC(=O)CCCCCCC(=O)NCCCC[C@H](NC(=O)N[C@@H](CCC(=O)O)C(=O)O)C(=O)O)C(=O)O)cc1[211At] (some centres unmarked) [[^211At] labeled PSMA-904]
2. O=C(O)CC[C@H](NC(=O)N[C@@H](CCCCNC(=O)c1ccc([131I])cc1)C(=O)O)C(=O)O [[^131I]YC-I-27]

[0.84, 0.06]
